condition_summary: buffer; pH 7.4; 200.0 µM
measurement_name: log10(solubility kinetic) (log10 of the value in µg/mL)
Please note: log10 values; quantity solubility kinetic; unit µg/mL.

Below are worked cases with known answers.
Cc1ccc(C(=O)O/N=C(\N)c2ccccn2)c(Cl)c1 :: 1.63
O=C(OCC(=O)N1CCCC1)c1c(Cl)ccc(Cl)c1Cl :: 1.59
CN(CC(=O)Nc1ccc(Cl)cc1)C(=O)CCc1ccccc1 :: 0.72
COc1ccccc1CNC(=O)CCNS(=O)(=O)/C=C/c1ccc(C)cc1 :: 1.76

Request: // lookup log10(solubility kinetic) for COC(=O)c1ccc(S(=O)(=O)NCc2ccco2)o1
Result: 1.59

Request: Similarly, CSc1ccc(C(=S)N2CCCCCC2)cc1 ?
Result: 1.11

Request: Similarly, CN(C)C(=O)Oc1ccc2c(c1)O/C(=C\c1ccccc1)C2=O ?
Result: -0.10

Request: Similarly, CC1C2NC(=O)N(Cc3ccccc3)C1(C)Oc1ccccc12 (stereo not given) ?
Result: 1.32

Request: Similarly, O=C(O)c1ccc(Cl)c(NCc2cccs2)c1 ?
Result: 1.54

Request: Similarly, CCN(CC)CCCNc1ncnc2ccccc12.Cl ?
Result: 1.63

Request: Similarly, CCOC(=O)c1c(C)nc2cc(C)cc(C)n12 ?
Result: 1.51

Request: Similarly, CC(=O)c1c(-c2ccccc2)c2ccccc2[nH]c1=O ?
Result: 1.18

Request: Similarly, COCCCNC(=O)C(=O)Nc1cc2c3c(c1)CCN3C(=O)CC2 ?
Result: 1.69

---

condition_summary: buffer; pH 7.4; 200.0 µM
Item-by-item account of solubility kinetic
Provide only the numeric value, understood in µg/mL.

Request: // lookup solubility kinetic for N#CCCSc1ccccc1NC(=O)c1cc(=O)c2ccccc2o1
Result: 2.2

Request: Similarly, CN=C(C)/C(C(=O)OC)=C(/O)c1ccc(Cl)cc1Cl ?
Result: 34

Request: Similarly, CC(=O)Nc1ccc(NC(=O)N(c2ccccc2)c2ccccc2)cc1 ?
Result: 6.4

Request: Similarly, CCCc1cc(C(=O)Nc2cccc(Cl)c2C)no1 ?
Result: 16.4

---

condition_summary: buffer; pH 7.4; 200.0 µM
measurement_name: solubility kinetic (µg/mL)
Provide only the numeric value, understood in µg/mL.

Below are worked cases with known answers.
NC(=O)C1CC(=O)N(c2ccc(OCc3ccc([N+](=O)[O-])cc3)cc2)C1 (stereo unspecified) :: 20.4
O=C(Cc1ccc([N+](=O)[O-])cc1)N1CCCc2ccccc21 :: 39.5

Request: // lookup solubility kinetic for COc1cccc(C(=O)Nc2nc3ccccc3s2)c1
Result: 1.6

Request: Similarly, Clc1ncc(CN2CCN(c3ccccc3)CC2)s1 ?
Result: 40.9

---

Item-by-item account of solubility kinetic
condition_summary: buffer; pH 7.4; 200.0 µM
Provide only the numeric value, understood in µg/mL.

COc1ccccc1CC(=O)Nc1cccc2ccccc12 :: 2.5
Cc1ccc(CNS(=O)(=O)c2ccc(C(F)(F)F)cc2)n1C :: 30.6

Request: // lookup solubility kinetic for CCc1cccc(CC)c1NC(=O)CNCc1cccs1
Result: 18.7

Request: Similarly, Cc1cccc(S(=O)(=O)Nc2ccncc2)c1 ?
Result: 28.1

Request: Similarly, Cc1ccc(C)c(S(=O)(=O)/N=C(/Nc2ccccc2)c2ccccc2)c1 ?
Result: 17.2

Request: Similarly, Cc1cc(C(=O)Nc2ccc(N3CCCCC3)cc2)no1 ?
Result: 6.8

---

Item-by-item account of log10 solubility kinetic
condition_summary: buffer; pH 7.4; 200.0 µM
Please note: log10 values; quantity solubility kinetic; unit µg/mL.

Below are worked cases with known answers.
Cc1ccc(CC2CC(=O)N(c3cc(C)ccc3C)C2=O)cc1 (stereo not given) :: 1.53
COc1ccc(CCNC(=O)C(C)OC(=O)c2cccs2)cc1OC (stereo not given) :: 1.69
COc1ccc(OCC(=O)Nc2ccc3c(c2)CCC3)cc1 :: 1.29

Request: // lookup log10 solubility kinetic for COc1ccccc1NC(=O)Nc1cccc(C)n1
Result: -0.40

Request: Similarly, CC1CN(C2=N/C(=C/c3ccc4c(c3)OCO4)C(=O)N2)CC(C)O1 (stereo not given) ?
Result: 1.39

Request: Similarly, N#Cc1c(-c2ccccc2)oc(=O)c2ccccc12 ?
Result: 0.08

Request: Similarly, O=C1c2ccccc2C(=O)N1Cc1ccccc1F ?
Result: 0.18

Request: Similarly, Cc1ccc(NC(=O)C(C)SCc2ccccc2)cc1 (stereo not given) ?
Result: 1.52

---

condition_summary: buffer; pH 7.4; 200.0 µM
Item-by-item account of solubility kinetic

CNc1nc(N)c([N+](=O)[O-])c(N2CCCCCC2)n1 :: 39.5 µg/mL

Request: // lookup solubility kinetic for COC(=O)c1c(C)[nH]c(C(=O)CN2C(=O)C3CC=CCC3C2=O)c1C (stereo unspecified)
Result: > 51.7 µg/mL

Request: Similarly, CCOC(=O)N1CCN(C(=O)c2c(N)no[n+]2[O-])CC1 ?
Result: > 42.8 µg/mL

Request: Similarly, CCCCNC(=O)CSc1nc2ccc(C)cc2[nH]1 ?
Result: > 41.6 µg/mL

Request: Similarly, CC(C)(C)NC(=O)C1CCC(CNc2c(N3CCCCC3)c(=O)c2=O)CC1 (stereo unspecified) ?
Result: > 56.3 µg/mL

Request: Similarly, COc1ccc(C2(CNC(=O)c3cccs3)CCOCC2)cc1 ?
Result: 48.6 µg/mL

---

condition_summary: buffer; pH 7.4; 200.0 µM
measurement_name: solubility kinetic

Request: // lookup solubility kinetic for CC(C)Cc1cc(C(=O)Nc2ccc(Br)cc2)no1
Result: < 0.3 µg/mL

---

condition_summary: buffer; pH 7.4; 200.0 µM
# if value of solubility kinetic reaches 40 µg/mL, tag TRUE; if it stays below, tag FALSE

Some solved cases for reference:
CC1(c2ccccc2)NC(=O)N(CC(=O)N(c2ccccc2)C2CCS(=O)(=O)C2)C1=O (centres undefined) :: TRUE
Cc1ccccc1S(=O)Cc1ccc(C(=O)NC2CC2)o1 (centres undefined) :: TRUE
Cc1cccc(NC(=O)CN2C(=O)NC3(CCCCCCC3)C2=O)c1C :: TRUE
O=C(CSc1ncccn1)NCc1cccc(Cl)c1 :: TRUE

Request: Assess whether reported solubility kinetic for CCOC(=O)C1=C(C)NC(=O)CC1c1ccccc1OC (centres undefined) sits at 40 µg/mL or higher.
Result: FALSE

Request: Similarly, O=C(COC(=O)c1ccc(Br)o1)Nc1ccc(F)cc1[N+](=O)[O-] ?
Result: FALSE

Request: Similarly, Cc1cc(C(=O)N2CCN(c3ncccc3C#N)CC2)no1 ?
Result: TRUE

Request: Similarly, Br.COc1ccc(C(=O)CN2CCCCC2)cc1 ?
Result: TRUE

Request: Similarly, COc1ccc2c(c1)C(=O)C(=O)N2CC1COc2ccccc2O1 (centres undefined) ?
Result: FALSE

Request: Similarly, COc1ccc(NC(=O)c2ccc(S(=O)(=O)N3CCCCC3)cc2)cc1OC ?
Result: FALSE

Request: Similarly, O=C(NCc1ccccc1)N1CCOc2ccccc21 ?
Result: FALSE

Request: Similarly, COc1ccccc1C(=O)C1CCCN(C(=O)Nc2ccccc2F)C1 (centres undefined) ?
Result: TRUE

Request: Similarly, Cc1ccc(OCC(=O)NCCCNC(=O)c2ccco2)cc1 ?
Result: TRUE

Request: Similarly, COc1ccc(NC(=O)c2ccc3[nH]c(C)c(C)c3c2)c(OC)c1 ?
Result: FALSE

Request: Similarly, CC1CCN(c2ccc(C(F)(F)F)cc2N)CC1 ?
Result: FALSE

---

condition_summary: buffer; pH 7.4; 200.0 µM
measurement_name: log10(solubility kinetic) (log10 of the value in µg/mL)
Please note: log10 values; quantity solubility kinetic; unit µg/mL.

Below are worked cases with known answers.
O=C(COC(=O)c1ccccc1O)NCc1ccccc1Cl :: 0.70
CCCOC(=O)C1=C(C)N(C)C(=O)NC1c1cc2c(cc1[N+](=O)[O-])OCO2 (centres undefined) :: 1.69
COC(=O)c1cn(C(=O)c2cc(OC)cc(OC)c2)c2ccccc12 :: 0.53
COc1ccccc1C(C[N+](=O)[O-])c1c[nH]c2ccccc12 (centres undefined) :: 0.95
Cc1cc(C)c2c(=O)c(C#N)coc2c1 :: 1.42

Request: // lookup log10(solubility kinetic) for N#C/C(=C(/O)c1cccs1)c1nc2ccccc2[nH]1
Result: 0.08

Request: Similarly, CCOC(=O)C1=C(O)/C(=C\c2cc(C)n(-c3ccccc3F)c2C)N=C1C ?
Result: 1.51

Request: Similarly, CNC(=O)C12CC3CC(C1)CC(c1ccc(C)cc1)(C3)C2 ?
Result: 1.50

---

condition_summary: buffer; pH 7.4; 200.0 µM
# if value of solubility kinetic reaches 40 µg/mL, tag Y; if it stays below, tag N

Cc1ccc(N2C(=O)N(C(C)C)C(C)(C)CC2(C)O)cc1 (centres undefined) :: Y
Cc1ccc2c(c1)[nH]c1c(=O)n(Cc3ccco3)cnc12 :: N
CCc1nnc(NC(=O)CS(=O)(=O)Cc2ccccc2)s1 :: Y
Fc1ccc(N2CN(Cc3cccnc3)CNC2=S)cc1 :: Y
O=C(COc1ccc(F)cc1)N1CCCCCCC1 :: N
CN(C)C(CNC(=O)CCOc1ccccc1)c1ccco1 (centres undefined) :: Y

# evaluate next
Request: Assess whether reported solubility kinetic for CC(C)c1ccc(-c2c(NCCc3ccccc3)c(=O)c2=O)cc1 sits at 40 µg/mL or higher.
Result: N
